Reference for the values: ChEMBL document CHEMBL1123691

target: Dopamine beta-hydroxylase (Bos taurus, UniProt P15101)
Sequence (P15101 whole entry): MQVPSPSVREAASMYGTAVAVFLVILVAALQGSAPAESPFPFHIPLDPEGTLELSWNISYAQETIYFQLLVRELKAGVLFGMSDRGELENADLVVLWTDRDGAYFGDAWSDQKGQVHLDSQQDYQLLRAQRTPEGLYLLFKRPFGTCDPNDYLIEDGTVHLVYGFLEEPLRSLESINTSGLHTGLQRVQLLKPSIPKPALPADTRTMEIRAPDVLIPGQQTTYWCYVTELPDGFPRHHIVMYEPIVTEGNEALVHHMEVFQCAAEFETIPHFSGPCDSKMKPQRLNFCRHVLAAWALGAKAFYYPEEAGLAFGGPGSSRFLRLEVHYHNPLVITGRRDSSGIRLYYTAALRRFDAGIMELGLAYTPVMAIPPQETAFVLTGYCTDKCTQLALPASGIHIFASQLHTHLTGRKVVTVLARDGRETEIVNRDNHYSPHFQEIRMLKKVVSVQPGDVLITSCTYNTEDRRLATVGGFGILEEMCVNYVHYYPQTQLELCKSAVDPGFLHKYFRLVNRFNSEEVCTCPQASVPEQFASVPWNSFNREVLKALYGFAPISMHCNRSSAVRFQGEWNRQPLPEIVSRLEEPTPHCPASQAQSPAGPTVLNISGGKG
value.kind: pIC50
The value called pIC50 is obtained by taking minus log10 of the concentration in mol/L.

INPUT: Could you share which pIC50 value was measured for Oc1ccc(Cn2cc[nH]c2=S)cc1F ?
OUTPUT: 5.82

----------
target: UniProtKB P15101; assay: Inhibitory Concentration against bovine Dopamine beta hydroxylase (DBH); Range is between (4.9-6.5)
value.kind: IC50
Write the numeric value and append its unit.

INPUT: IC50 lookup needed for Fc1cccc(Cn2cc[nH]c2=S)c1 , thanks.
OUTPUT: 5.6 µM

----------
target: Dopamine beta-hydroxylase (Bos taurus, UniProt P15101)
value.kind: IC50
Enter the number, and then the unit.

INPUT: Which value of IC50 has been reported for O=[N+]([O-])c1ccc(Cn2cc[nH]c2=S)cc1 in the records?
OUTPUT: 53 µM
